Recorded solubility at 24 h, one value per entry.
experiment: physchem; details: pH 6.8, aqueous buffer, kinetic from dmso stock, Solubility (pH 6.8)
Response body: numeric value in mg/mL, unit text excluded.

Some solved cases for reference:
- CO[C@H]1CN(c2cccc(-c3cc(C)ccc3OCc3cc(C)c4c(c3)CCN(C3CCOCC3)C4)n2)CC[C@H]1C(=O)O: 0.074
- CO[C@H]1CN(c2cccc(-c3cccc(C)c3OCc3ccc4c(c3C)CCN(C3COC3)C4)n2)CC[C@H]1C(=O)O: 0.064
- Cc1cccc(-c2cccc(N3C[C@@H]4C[C@]4(C(=O)O)C3)n2)c1OCc1ccc2c(c1)CCN(C1CCOCC1)CC2: 0.067

# ---- query compound ----
Ask: Look up and state reported solubility at 24 h for `Cc1ccc(OCc2ccc3c(c2C)CCN(C2CCOCC2)C3)c(-c2cccc(N3CC[C@@]4(C(=O)O)C[C@H]4C3)n2)c1`
Reply: 0.038

* * *

test: physchem; conditions: pH 4.5, aqueous buffer, kinetic from dmso stock, Solubility (pH 4.5)
Listing of recorded solubility at 24 h by entry.
# number only, unit µg/mL dropped from output

For orientation, consider the following solved cases.
* CO[C@H]1CN(c2nc(-c3cccc(Cl)c3OCc3ccc4c(c3)[C@H](C)CN(C3CCOCC3)CC4)cs2)CC[C@H]1C(=O)O | 60.6
* CCOC[C@H]1N(c2cccc(-c3cccc(C)c3OCc3cc(C)c4c(c3)CCN(C3CCOCC3)C4)n2)C[C@@H]2C[C@@]21C(=O)O | 135

Ask: Write down solubility at 24 h measured for item `Cc1cc(COc2c(C)cccc2-c2ccnc(N3C[C@@H]4C[C@]4(C(=O)O)C3)n2)cc2c1CN(C1CCOCC1)CC2`
Reply: 71

* * *

molecular target: human soluble guanylate cyclase alpha 1 and beta 1 subunits (sGC) (Homo sapiens (Human), UniProt Q02108+Q02153); assay: sGC cellular activator assay (cGMP, HTRF), in the presence and absence of 50% human serum; details: CHO cells stably expressing human sGC alpha 1/beta 1, preincubated with 40 microM ODQ; cGMP by HTRF; Table 2 does not state whether with or without 50% human serum
Sequence (Q02108 whole entry partner): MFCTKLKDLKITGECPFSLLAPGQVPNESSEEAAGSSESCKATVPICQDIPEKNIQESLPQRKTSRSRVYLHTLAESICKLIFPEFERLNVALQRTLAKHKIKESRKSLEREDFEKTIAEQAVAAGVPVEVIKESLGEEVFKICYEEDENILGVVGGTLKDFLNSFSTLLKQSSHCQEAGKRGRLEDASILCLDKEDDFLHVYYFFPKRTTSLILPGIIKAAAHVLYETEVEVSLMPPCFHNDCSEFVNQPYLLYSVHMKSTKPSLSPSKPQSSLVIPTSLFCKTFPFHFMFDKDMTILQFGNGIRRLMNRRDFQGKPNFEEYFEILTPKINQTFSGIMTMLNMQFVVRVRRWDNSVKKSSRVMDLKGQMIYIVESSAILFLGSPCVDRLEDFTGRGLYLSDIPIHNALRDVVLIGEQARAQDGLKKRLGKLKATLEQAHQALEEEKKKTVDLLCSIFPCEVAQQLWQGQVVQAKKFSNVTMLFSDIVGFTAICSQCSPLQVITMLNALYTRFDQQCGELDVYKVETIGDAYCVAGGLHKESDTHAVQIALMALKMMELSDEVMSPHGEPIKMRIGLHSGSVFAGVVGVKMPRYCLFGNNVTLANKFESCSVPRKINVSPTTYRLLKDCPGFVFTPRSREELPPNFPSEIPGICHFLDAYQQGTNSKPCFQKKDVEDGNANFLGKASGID
Sequence (Q02153 whole entry): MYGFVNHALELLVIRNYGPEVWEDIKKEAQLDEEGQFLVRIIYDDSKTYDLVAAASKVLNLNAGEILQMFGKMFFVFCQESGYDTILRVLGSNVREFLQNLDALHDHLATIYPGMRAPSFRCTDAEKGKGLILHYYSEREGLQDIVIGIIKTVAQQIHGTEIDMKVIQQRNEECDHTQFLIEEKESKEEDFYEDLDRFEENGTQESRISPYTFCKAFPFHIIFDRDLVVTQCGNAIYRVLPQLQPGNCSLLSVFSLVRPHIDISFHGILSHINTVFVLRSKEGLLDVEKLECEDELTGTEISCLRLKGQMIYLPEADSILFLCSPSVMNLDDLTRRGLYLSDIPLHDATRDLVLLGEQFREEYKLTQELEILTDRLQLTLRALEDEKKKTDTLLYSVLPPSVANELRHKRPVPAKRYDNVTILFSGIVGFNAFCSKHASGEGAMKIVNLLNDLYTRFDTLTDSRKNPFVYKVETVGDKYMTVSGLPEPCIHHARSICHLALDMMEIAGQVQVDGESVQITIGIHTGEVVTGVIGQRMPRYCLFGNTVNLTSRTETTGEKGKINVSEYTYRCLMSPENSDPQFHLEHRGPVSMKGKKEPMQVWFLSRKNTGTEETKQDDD
pEC50 overview
A value of pEC50 is the negative decimal logarithm of a concentration given in moles per litre.

Reference set, count: 4
* Cc1ccc(OCc2ccc3c(c2C)CCN(C2CCOCC2)CC3)c(-c2cccc(N3C[C@@H]4C[C@]4(C(=O)O)C3)n2)c1 | 7.80
* COC[C@H]1N(c2nc(-c3cccc(C)c3OCc3cc(C)c4c(c3)CCN(C3COC3)C4)cs2)C[C@@H]2C[C@@]21C(=O)O | 8.15
* Cc1ccc(OCc2cc(C)c3c(c2C)CCN(C2COC2)C3)c(-c2cccc(N3C[C@@H]4C[C@]4(C(=O)O)C3)n2)c1 | 7.42
* CO[C@H]1CN(c2nc(-c3cccc(Cl)c3OCc3ccc4c(c3)[C@@H](C)CN(C3COC3)CC4)cs2)CC[C@H]1C(=O)O | 8.52

Ask: Report measured pEC50; entry is `CCO[C@@H]1CN(c2nccc(-c3cccc(C)c3OCc3ccc4c(c3C)CCN(C3CCOCC3)CC4)n2)CC[C@@H]1C(=O)O`
Reply: 6.82

Ask: Provide measured pEC50 value, entry: `Cc1ccc(OCc2ccc3c(c2)CCN(C2CCOCC2)C3)c(-c2csc(N3C[C@H]4CC[C@@H](C3)[C@H]4C(=O)O)n2)c1`
Reply: 7.17

Ask: Look up pEC50 of `Cc1c(COc2ccccc2-c2cccc(N3CC[C@@]4(C(=O)O)C[C@H]4C3)n2)ccc2c1CCN(C1COC1)C2` and report it.
Reply: 8.40

Ask: Answer with the recorded pEC50 for the compound listed here: `Cc1cc(C)c(OCc2ccc3c(c2)CCN(C2CCOCC2)C3)c(-c2csc(N3C[C@@H]4C[C@]4(C(=O)O)C3)n2)c1`
Reply: 6.87

Ask: For the compound COC[C@H]1N(c2cccc(-c3cccc(C)c3OCc3cc(C)c4c(c3)CCN(C3CCOC3)C4)n2)C[C@@H]2C[C@@]21C(=O)O (stereo partly shown) [Compound 50] , give its reported pEC50.
Reply: 8.10
